B1: TRIB1 (parent)
chain: EIGTSDQIVPEYQEDSDISSFFC

variants of: B1; test: protein stability index of a GFP-peptide fusion (GPS, HEK-293T) (PSI 1-6); higher = more stable; conditions: c terminus: native;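 note: lentivirally expressed fusions sorted by FACS into six bins by GFP to DsRed ratio, PSI derived from sequencing read proportions per bin multiplied by bin number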
Think of 3 as a floor: if protein stability index stands on it or above, it is rule met; beneath it, rule not met.

>  <sequenceVariant>
D6M

>  <label>
rule met

$$$$
>  <sequenceVariant>
S16I

>  <label>
rule not met

$$$$
>  <sequenceVariant>
I8E

>  <label>
rule met

$$$$
>  <sequenceVariant>
V9S

>  <label>
rule met

$$$$
>  <sequenceVariant>
T4K

>  <label>
rule met

$$$$
>  <sequenceVariant>
D6Y

>  <label>
rule met

$$$$
>  <sequenceVariant>
S20E

>  <label>
rule not met

$$$$
>  <sequenceVariant>
Y12W

>  <label>
rule not met

$$$$
>  <sequenceVariant>
Q7P

>  <label>
rule met

$$$$
>  <sequenceVariant>
D17P

>  <label>
rule met

$$$$
>  <sequenceVariant>
P10Q

>  <label>
rule met

$$$$
>  <sequenceVariant>
E14S

>  <label>
rule not met

$$$$
>  <sequenceVariant>
V9K

>  <label>
rule met

$$$$
>  <sequenceVariant>
E11W

>  <label>
rule met

$$$$
>  <sequenceVariant>
E14D

>  <label>
rule not met

$$$$
>  <sequenceVariant>
G3F

>  <label>
rule not met

$$$$
>  <sequenceVariant>
I8V

>  <label>
rule not met

$$$$
>  <sequenceVariant>
D17V

>  <label>
rule not met

$$$$
>  <sequenceVariant>
T4C

>  <label>
rule not met

$$$$
>  <sequenceVariant>
C23M

>  <label>
rule not met

$$$$
>  <sequenceVariant>
Q7H

>  <label>
rule met

$$$$
